# Test system: Mannheimia haemolytica
# assayProtocol: minimum inhibitory concentration (MIC)
# conditionParameters: isolate (source animal id): 233
The reader will find reported minimum inhibitory concentration values listed item by item below.

The cases that follow already have their minimum inhibitory concentration on record.
>>> datavalue("NC[C@@H]1O[C@H](O[C@H]2[C@@H](O)[C@H](O[C@@H]3[C@@H](O)[C@H](N)C[C@H](N)[C@H]3O[C@H]3O[C@H](CN)[C@@H](O)[C@H](O)[C@H]3N)O[C@@H]2CO)[C@H](N)[C@@H](O)[C@@H]1O [Neomycin]")
"> 32 mg/L"
>>> datavalue("CC1(C)S[C@@H]2[C@H](NC(=O)Cc3ccccc3)C(=O)N2[C@H]1C(=O)O [Penicillin]")
"> 8 mg/L"

Which minimum inhibitory concentration value belongs to COc1cc(Cc2cnc(N)nc2N)cc(OC)c1OC.Cc1cc(NS(=O)(=O)c2ccc(N)cc2)no1 [trimethoprim-sulfamethoxazole] ?
≤ 2 mg/L

====

The reader will find reported minimum inhibitory concentration values listed item by item below.
# Tested on: Mannheimia haemolytica
# assayProtocol: minimum inhibitory concentration (MIC)
# conditionParameters: isolate (source animal id): 287

Which minimum inhibitory concentration value belongs to `NC[C@@H]1O[C@H](O[C@H]2[C@@H](O)[C@H](O[C@@H]3[C@@H](O)[C@H](N)C[C@H](N)[C@H]3O[C@H]3O[C@H](CN)[C@@H](O)[C@H](O)[C@H]3N)O[C@@H]2CO)[C@H](N)[C@@H](O)[C@@H]1O` ?
> 32 µg/mL

Same again, this time with `CC[C@H]1OC(=O)C[C@@H](O)[C@H](C)[C@@H](O[C@@H]2O[C@H](C)[C@@H](O)[C@H](N(C)C)[C@H]2O)[C@@H](CCN2C[C@H](C)C[C@H](C)C2)C[C@@H](C)C(=O)/C=C/C(C)=C/[C@@H]1CO[C@@H]1O[C@H](C)[C@@H](O)[C@@H](OC)[C@H]1OC`
> 16 µg/mL

Same again, this time with `CC1(C)S[C@@H]2[C@H](NC(=O)[C@H](N)c3ccccc3)C(=O)N2[C@H]1C(=O)O`
≤ 0.25 µg/mL

Same again, this time with `CO/N=C(\C(=O)N[C@@H]1C(=O)N2C(C(=O)O)=C(CSC(=O)c3ccco3)CS[C@H]12)c1csc(N)n1`
≤ 0.25 µg/mL

====

The reader will find reported minimum inhibitory concentration values listed item by item below.
# Tested on: Mannheimia haemolytica
# assayProtocol: minimum inhibitory concentration (MIC)
# conditionParameters: isolate (source animal id): 34

The cases that follow already have their minimum inhibitory concentration on record.
>>> datavalue("CC[C@H]1OC(=O)C[C@@H](O)[C@H](C)[C@@H](O[C@@H]2O[C@H](C)[C@@H](O[C@H]3C[C@@](C)(O)[C@@H](O)[C@H](C)O3)[C@H](N(C)C)[C@H]2O)[C@@H](CC=O)C[C@@H](C)C(=O)/C=C/C(C)=C/[C@@H]1CO[C@@H]1O[C@H](C)[C@@H](O)[C@@H](OC)[C@H]1OC [Tylosin]")
"> 32 µg/mL"
>>> datavalue("CCCN1C[C@H](C)[C@@H](O)[C@](C)(O)[C@@H](CC)OC(=O)[C@H](C)[C@@H](O[C@H]2C[C@@](C)(OC)[C@@H](O)[C@H](C)O2)[C@H](C)[C@@H](O[C@@H]2O[C@H](C)C[C@H](N(C)C)[C@H]2O)[C@](C)(O)C[C@H]1C [Gamithromycin]")
"≤ 1 µg/mL"

Which minimum inhibitory concentration value belongs to CC[C@H]1OC(=O)C[C@@H](O)[C@H](C)[C@@H](O[C@@H]2O[C@H](C)[C@@H](O)[C@H](N(C)C)[C@H]2O)[C@@H](CCN2CCCCC2)C[C@@H](C)C(=O)/C=C/C(C)=C/[C@@H]1CN1CCCCC1 [Tildipirosin] ?
≤ 1 µg/mL

Data origin: the supplement of paper PMC8612539
